Cited source for all entries: the RNAGym collection of RNA variant scans (doi:10.1126/science.aae0568)

B1: tRNA (parent)
chain: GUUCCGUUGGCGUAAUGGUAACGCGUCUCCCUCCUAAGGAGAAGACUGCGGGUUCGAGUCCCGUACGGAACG

Variants of: B1
EXPERIMENTAL_DETAILS: yeast fitness relative to wild type (ratio to wild type); higher = fitter; tRNA-Arg(CCU), competitive growth, 37 C, YPD
Variants at the floor of the assay were thinned out.
ENDPOINT: yeast fitness

Hi, could you look up yeast fitness for each item in my list?
1. A20U U28G U32G C34G C66U
2. G18C A21G G67A

1: ≤ 0.5; 2: ≤ 0.5

Hi, could you look up yeast fitness for each item in my list?
1. C5U U8A A21G C49U G63C
2. C24A A36G C61U

1: ≤ 0.5; 2: ≤ 0.5
